- Protocol Text: Tissue distribution following oral administration of reference compounds and the disclosed compounds
- Type: in vivo, rats
- Study Conditions: rat; prodrug level in the blood 1 hour after oral administration at 5 mg/kg dose in rats (Table 2); read-out: Drugblood
Binary call on concentration at 1 h: class 1 from 30 ng/mL upward, class 0 beneath that.

| Compound | Assigned Category |
| --- | --- |
| CCCCCCCOP1(=O)OC[C@H]2O[C@@H](n3cc(F)c(=O)[nH]c3=O)C[C@@H]2O1 (some centres unmarked) [Compound 201] | class 1 |
| C[C@H](NP(=O)(OC[C@H]1O[C@@H](n2cc(F)c(=O)[nH]c2=O)C[C@@H]1O)Oc1cccc2ccccc12)C(=O)OCc1ccccc1 (some centres unmarked) [NUC-3373, reference compound] | class 0 |
| CCCCCCCCOP1(=O)OC[C@H]2O[C@@H](n3cc(F)c(=O)[nH]c3=O)C[C@@H]2O1 (some centres unmarked) [Compound 202] | class 1 |
| CCCCCOC(=O)Nc1nc(=O)n([C@@H]2O[C@H](C)[C@@H](O)[C@H]2O)cc1F [Capecitabine, reference compound] | class 1 |
| O=c1[nH]c(=O)n([C@H]2C[C@@H]3OP(=O)(OCC4(c5ccccc5)CC4)OC[C@H]3O2)cc1F (some centres unmarked) [Compound 217] | class 0 |
| O=c1[nH]c(=O)n([C@H]2C[C@@H]3OP(=O)(OCCCc4ccccc4)OC[C@H]3O2)cc1F (some centres unmarked) [Compound 220] | class 1 |
| O=c1[nH]c(=O)n([C@H]2C[C@@H]3OP(=O)(OCc4ccc(F)cc4C4OCCO4)OC[C@H]3O2)cc1F (some centres unmarked) [Compound 219] | class 0 |

---

- Protocol Text: Tissue distribution following oral administration of reference compounds and the disclosed compounds
- Assay type: in vivo, rats
- Study Conditions: rat; drug level in the blood 1 hour after oral administration at 5 mg/kg dose in rats (Table 1); read-out: Drugblood
Known concentration at 1 h of a selection of compounds

| Compound | Bound Sign | concentration at 1 h [ng/mL] |
| --- | --- | --- |
| CCc1ccc(COP2(=O)OC[C@H]3O[C@@H](n4cc(F)c(=O)[nH]c4=O)C[C@@H]3O2)cc1 (stereo partly drawn) [Compound 147] | < | 1 |
| O=c1[nH]c(=O)n([C@H]2C[C@@H]3OP(=O)(OCc4ccc(Cl)cc4)OC[C@H]3O2)cc1F (single isomer, unassigned) [Compound 127] | = | 7.81 |
| CCOCOC1[C@@H](O)[C@H](n2cc(F)c(=O)n(COCC)c2=O)O[C@@H]1C (stereo in doubt) [Compound 109] | = | 83.9 |
| C[C@H]1O[C@@H](n2cc(F)c(=O)[nH]c2=O)[C@@H]2OC(c3ccc(O)cc3)O[C@@H]21 (stereo partly drawn) [Compound 116] | = | 1350 |
| COc1ccc(C2O[C@@H]3[C@H](O2)[C@@H](C)O[C@H]3n2cc(F)c(=O)[nH]c2=O)cc1 (stereo partly drawn) [Compound 118] | = | 3680 |
| CCCCCCCCCOP1(=O)OC[C@H]2O[C@@H](n3cc(F)c(=O)[nH]c3=O)C[C@@H]2O1 (stereo partly drawn) [Compound 132] | = | 59.9 |

---

- Protocol Text: Tissue distribution following oral administration of reference compounds and the disclosed compounds
- Type: in vivo, rats
- Study Conditions: rat; drug level in the liver 1 hour after oral administration at 5 mg/kg dose in rats (Table 1); read-out: Drugliver
Reported Endpoint: concentration at 1 h

| Compound | Reported Result |
| --- | --- |
| O=c1[nH]c(=O)n([C@H]2C[C@@H]3OP(=O)(OCc4ccc(C(F)(F)F)cc4)OC[C@H]3O2)cc1F (stereo partly drawn) | < 6 ng/g |
| O=c1[nH]c(=O)n([C@H]2C[C@@H]3OP(=O)(OCc4ccc(Cl)cc4)OC[C@H]3O2)cc1F (single isomer, unassigned) | < 6 ng/g |
| CCc1ccc(COP2(=O)OC[C@H]3O[C@@H](n4cc(F)c(=O)[nH]c4=O)C[C@@H]3O2)cc1 (stereo partly drawn) | < 6 ng/g |
